test: A CellTox Green Cytotoxicity Assay to monitor cytotoxicity in HepG2 cells - 24 hour (AID 1224878); conditions: CellTox Green fluorescence; series mostly up to 76.8 µM; note: % is set by controls: 0 for no effect and ±100 for the full control effect; nearly all actives have a fitted effect of over 45% in size
Inconclusive results are not listed. Active and inactive are the calls of the source. Calls come from the whole dose curve; as a rule, active = well fitted activation curve with a large enough effect in the repeat runs; inconclusive = weak or mixed curves; inactive = flat fitted curve, though single readings scatter.
property-measured: cytotoxicity

Reference set, count: 5
In [3]: df
Out[3]:
                                   molecule  observed_value
0                                   ClCOCCl        inactive
1                  CCOC(=O)COc1ccc(Cl)cc1Cl        inactive
2  C=CCN1CC[C@]23CCCC[C@H]2[C@H]1Cc1ccc(O)cc13        inactive
3  COc1ccc2c(C(=O)c3ccc(Cl)cc3)c(C)n(CC(=O)O)c2c1        inactive
4           CCN[C@@H](C)Cc1cccc(C(F)(F)F)c1        inactive

Reported cytotoxicity, molecule "COP(=O)(OC)O/C(C)=C/C(=O)N(C)C" : ____
inactive

cytotoxicity lookup needed for "CCOC(=O)N(C)N=O" , thanks.
inactive

Please give the measured cytotoxicity for this molecule: "BrCc1ccc(Br)cc1"
inactive

So what's the measured cytotoxicity for this one? "NC1(c2ccccc2)CCCCC1"
inactive

###

Test: qHTS assay to identify small molecule phospholipidosis (PLD) inducers (AID 1259344)
Details: HepG2 phospholipidosis, LipidTOX Red imaging, 24 h; series mostly up to 38.3 µM
Procedure: National Center for Advancing Translational Sciences [NCATS] Drug-induced Phospholipidosis (PLD) caused by cationic amphiphilic drugs is characterized by the appearance of unicentric or multicentric-lamellar bodies when viewed under electron microscope. […] Drug induced phospholipid accumulation is stained with the LipidTox dyes in red color which then is determined using an automated high content screening system. […]
Results filed as inconclusive are left out. Active and inactive are the calls of the source. Calls come from the whole dose curve; as a rule, active = well fitted activation curve with a large enough effect; inconclusive = small, poorly fitted or top-dose-only effect; inactive = flat fitted curve, though single readings scatter.
I would appreciate it if you answered using one of these outcomes: active, inactive

Use these answered entries as a reference point.
>>> print(df.to_string())
                         chemical_structure  class_label
0  Cc1ccc(S(=O)(=O)N[C@@H](CCCCN)C(=O)CCl)cc1     inactive
1  C[C@H](CN1CCOCC1)C(C(=O)N1CCCC1)(c1ccccc1)c1ccccc1     inactive
2           CC(C)(C)NC[C@H](O)c1ccc(O)cc1Cl     inactive

Test call for this molecule, please: "ClC(Cl)(Cl)Cl"
inactive

Test call for this molecule, please: "NC1(c2ccccc2)CCCCC1"
active

So what was the verdict on "O=c1[nH]oc2c1CCNC2" in this test?
inactive

###

test: qHTS assay for identifying genotoxic compounds that show differential cytotoxicity against isogenic chicken DT40 cell lines with known DNA damage response pathways - Rad54/Ku70 mutant cell line (AID 743015); settings: DT40 Rad54/Ku70 mutant viability, CellTiter-Glo, 40 h; series mostly up to 66.8 µM; note: nearly all actives have a fitted effect of over 60% in size
Inconclusive results are not listed. Active and inactive are the calls of the source. Calls come from the whole dose curve; as a rule, active = well fitted cell-killing curve with a large enough effect in the repeat runs; inconclusive = weak or mixed curves; inactive = no such curve, though single readings can be large or run the other way.
Tick one outcome: active, inactive

In [3]: df
Out[3]:
                                   molecule  class_label
0                                Cl/C=C/CCl     inactive
1  CCOC1Oc2ccc(OS(C)(=O)=O)cc2C1(C)C (stereo not drawn)       active
2  CC1=C2[C@H]3OC(=O)[C@@H](C)[C@@H]3CC[C@@]2(C)C=CC1=O     inactive
3      CC1NCCOC1c1ccccc1 (stereo not drawn)     inactive
4        CC(C)C(C)(N)C#N (stereo not drawn)     inactive

Any idea what this test logged for CN1C(=O)COc2c(C(=O)NC3CN4CCC3CC4)cc(Cl)cc21 (stereo not drawn) ?
inactive

For "CCc1cc(OC)c(C[C@H](C)N)cc1OC" , what call appears in the results of this test?
active

Query: recorded result category for "CCN[C@@H](C)Cc1cccc(C(F)(F)F)c1" in this test
active

For this molecule, state the assay outcome: "Oc1ccc2c3c1O[C@H]1[C@@H](O)C=C[C@H]4[C@@H](C2)NCC[C@@]341"
inactive

// return assay outcome for "C=C(Cl)CCl"
inactive

Any idea what this test logged for "COC(=O)[C@@H](N)CCCN/C(N)=N/[N+](=O)[O-]" ?
inactive

What classification did "CCCN1CCC[C@@H]2Cc3[nH]ncc3C[C@H]21" end up with in this test?
inactive

What did the test return for "CNC(=O)Oc1ccccc1C(C)C" ?
inactive

###

assay: qHTS RealTime-Glo MT Cell Viability Assay in HEK293 cells - 40 hour (AID 1224874); conditions: RealTime-Glo luminescence; active compounds read low; note: % is set by controls: 0 for no effect and ±100 for the full control effect; nearly all actives have a fitted effect of over 50% in size
Records with an inconclusive call do not appear.
property-measured: max response (%)
# output: bare number, implied unit %

                                   molecule  property_measured  observed_value
0                      COC(=O)c1ccc(CBr)cc1       max response            3.15
1  O=C(NC(=O)c1c(F)cccc1F)Nc1cc(Cl)c(F)c(Cl)c1F       max response          -0.171
2            CCN[C@H](C)Cc1cccc(C(F)(F)F)c1       max response           -6.31
3                            CCCCCCCC(=O)Cl       max response            5.36
4      CC1NCCOC1c1ccccc1 (stereo not given)       max response            4.25

Which max response value belongs to "CCCC[N+](=O)[O-]" ?
1.79

Quick one: max response of "CC[C@H](N)c1ccccc1" ?
5.02

Fill in the blank: the reported max response of ClC1=C(Cl)C2(Cl)C(CBr)CC1(Cl)C2(Cl)Cl (stereo not given) is ____.
-5.43

Record request: max response value, item "COC(=O)c1ccccc1CS(=O)(=O)NC(=O)Nc1nc(OC)cc(OC)n1"
1.53

Please give the measured max response for this molecule: "NCCOS(=O)(=O)O"
1.3

Form field: reported max response of "c1cncc([C@@H]2CCCCN2)c1"
9.53

###

target: Cytochrome P450 1A2 (Homo sapiens) (UniProt P05177); assay: Cytochrome P450 Family 1 Subfamily A Member 2 (CYP1A2) small molecule antagonists: luciferase reporter qHTS assay (AID 1671199); conditions: P450-Glo CYP1A2 enzyme, luciferin luminescence, 1 h; series mostly up to 115 µM; note: nearly all actives have a fitted effect of over 50% in size
Sequence (P05177 whole entry, looked up): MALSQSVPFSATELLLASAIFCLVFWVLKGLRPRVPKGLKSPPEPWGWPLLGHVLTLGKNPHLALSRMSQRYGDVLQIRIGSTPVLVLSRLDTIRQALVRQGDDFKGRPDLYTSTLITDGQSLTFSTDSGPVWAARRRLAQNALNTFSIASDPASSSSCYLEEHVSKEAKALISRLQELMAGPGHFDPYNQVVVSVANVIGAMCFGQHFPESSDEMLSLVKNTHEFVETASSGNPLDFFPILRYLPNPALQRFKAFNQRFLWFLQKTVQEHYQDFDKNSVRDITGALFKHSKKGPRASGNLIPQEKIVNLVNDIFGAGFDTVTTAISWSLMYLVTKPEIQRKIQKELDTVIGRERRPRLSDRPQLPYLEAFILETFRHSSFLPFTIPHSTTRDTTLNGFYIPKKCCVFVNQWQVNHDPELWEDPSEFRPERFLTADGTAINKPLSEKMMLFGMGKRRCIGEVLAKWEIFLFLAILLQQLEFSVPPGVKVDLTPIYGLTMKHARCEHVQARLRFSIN
Records with an inconclusive call do not appear. Active and inactive are the calls of the source. Calls come from the whole dose curve; as a rule, active = well fitted inhibition curve with a large enough effect in the repeat runs; inconclusive = weak or mixed curves; inactive = no such curve, though single readings can be large or run the other way.
Can you answer with just one of these options? active, inactive

>>> df
                                   molecule  class_label
0  CC1N=C(N)OC1c1ccccc1 (stereo unspecified)     inactive
1                                  [P]#[In]     inactive
2                                    O=CCCl     inactive
3    CCCOC(=O)Cc1ccc(OCC(=O)N(CC)CC)c(OC)c1     inactive
4                               CCN(CCO)CCO     inactive

Lab log entry: "CCOP(=S)(OCC)SCCl" — outcome as called in the assay?
active

Tell me the assay call for "CC(=NC#N)N(C)Cc1ccc(Cl)nc1" please.
inactive

Per the assay record, what outcome was assigned to "NNCc1ccccc1" ?
active

// param item: O=C(NC(O)C(Cl)(Cl)Cl)NC(O)C(Cl)(Cl)Cl (stereo unspecified) ; yields the recorded call
inactive

Short answer needed: outcome of this test for CN(C)C(=O)Oc1cc(OC(=O)N(C)C)cc(C(O)CNC(C)(C)C)c1 (stereo unspecified) ?
inactive

Any idea what this test logged for CC(Cc1ccccc1)NCCCCl (stereo unspecified) ?
inactive

Please share the test call associated with "NC(=O)OCCCc1ccccc1" .
active

###

test: qHTS assay for small molecule activators of the heat shock response signaling pathway - cell viability counter screen (AID 743209); details: HSE-bla HeLa viability, CellTiter-Glo luminescence, 5 h; series mostly up to 62.6 µM; note: % is set by controls: 0 for no effect and ±100 for the full control effect; nearly all actives have a fitted effect of over 50% in size
Results filed as inconclusive are left out. Calls of active or inactive are those of the source. Calls come from the whole dose curve; as a rule, active = well fitted cell-killing curve with a large enough effect in the repeat runs; inconclusive = weak or mixed curves, or effect the other way; inactive = no such curve, though single readings can be large or run the other way.
property-measured: outcome

// solved cases for outcome follow
In [3]: df
Out[3]:
                                   compound  observed_value
0                 N#CN=C1SCCN1Cc1ccc(Cl)nc1        inactive
1                           O=C(Cl)c1ccccc1        inactive
2                   Cn1c(N)nc2c3cccnc3ccc21        inactive
3  CCOC(=O)CC(SP(=S)(OC)OC)C(=O)OCC (stereo unspecified)        inactive
4            CCN[C@H](C)Cc1cccc(C(F)(F)F)c1        inactive

Fill in the blank: the reported outcome of CC(C)(C1CCC(O)CC1)C1CCC(O)CC1 (stereo unspecified) is ____.
inactive

Entry "CCCC[N+](=O)[O-]" : reported outcome = ?
inactive
